# composite z-score annotations
# tested on: Follistatin (Homo sapiens)
# procedure details: follistatin binders on small-molecule microarrays, primary screen, biochemical, small-molecule microarray, 635/667 nm fluorescence (AID 1132)
# condition info: FST binding, 635 nm fluorescence, higher = more signal
I'd appreciate a reply containing only the number, no unit.

Observe how each entry below is paired with its result.
| molecule | tested on | test value |
| --- | --- | --- |
| CCCCCN1CC=CC23O[C@@H]4/C=C\CCC(C)OC(=O)C4[C@H]2C(=O)N(C(C)CO)[C@@H]3C1=O (some centres not stated) | Follistatin (Homo sapiens) | 0.274 |
| COc1ccc([Si](C)(C)[C@@H]2[C@@H](CC(=O)N3CCC[C@H]3CO)O[C@]3(C(=O)N(c4ccccc4)c4ccccc43)[C@H]2C)cc1 | Follistatin (Homo sapiens) | 1.1 |
| COCC(=C=CC[C@@H](O)c1cccc(OCCO)c1)C[C@@H](O)c1ccccn1 | Follistatin (Homo sapiens) | 0.868 |
| COCCOC(=O)N1C(=O)[C@@]2(c3cc(C#CCNC(N)=O)ccc31)[C@H](C(=O)Nc1nc3ccccc3s1)[C@H]1C(=O)O[C@H](c3ccccc3)[C@H](c3ccccc3)N1[C@@H]2c1ccc(OCCO)cc1 | Follistatin (Homo sapiens) | 1.36 |

Find the recorded composite z-score belonging to `Cc1ccc(S[C@]2(C(=O)NCCCN(C)C)CC(=O)N(Cc3cc(C(F)(F)F)cc(C(F)(F)F)c3)[C@@H]2c2ccc(CO)cc2I)cc1` and report it. -0.816

Please answer likewise for O=C1NC(=O)C2C1C=CC(C(O)c1cc(C(F)(F)F)cc(C(F)(F)F)c1)N2Nc1ccccn1 (configuration not stated) 0.89

Please answer likewise for `CC(C)N1C(=O)[C@@]2(Cc3ccccc31)c1ccccc1C(=O)N(Cc1ccccc1Cl)[C@H]2c1ccc(CO)cc1` -1.17
